Where do the numbers come from? From patent US10662218B2.

- test_description: Compound solubility in PBS (pH 7.4), LC-MS/MS
- assay_setup: pH 7.4, aqueous buffer, kinetic from dmso stock, Solubility (μM), Table 6-D; PBS (pH 7.4)
Some compounds, each annotated with its measured solubility at 1 h.
I only need the number, in µM, no unit after it.

{"columns": ["compound", "unit_label", "test_value"],
 "data": [
  ["COC(=O)[C@]1(C)CC[C@]2(C)CC[C@]3(C)C4=CC=C5C(=CC(=O)C(O)=C5C)[C@]4(C)CC[C@@]3(C)[C@@H]2C1 [ERX1074]", "µM", 4.19]
]}

Switching to the query record.
Which solubility at 1 h is reported for this compound? CC(C)NCC(O)COc1cccc2ccccc12 (centres unmarked) [Propranolol] 97.5
